All values here come from patent US8987195B2.

System: HCV genotype 1b replicon
Test: HCV replicon assay, genotype 1b replicon EC50
Type: cell-based, Hepatitis C virus
Settings: Hepatitis C virus, HCV replicon, genotype 1b; read-out: EC50 [gt-1b]
pEC50: −log10 of the molar value.

{"Compound": "Cc1nc2ccc(F)cc2c2c1O[C@]1(CC2)C[C@H]2C(=O)N[C@]3(C(=O)NS(=O)(=O)C4(C)CC4)C[C@H]3/C=C\\CCCCC[C@H](NC(=O)OCC(C)(C)C)C(=O)N2C1", "pEC50": 9.00}
{"Compound": "Cc1nc2cc(F)ccc2c2c1OC1(CC2F)C[C@H]2C(=O)N[C@]3(C(=O)NS(=O)(=O)C4(C)CC4)C[C@H]3/C=C\\CCCCC[C@H](NC(=O)OC(C)(C)C)C(=O)N2C1 (some centres unmarked)", "pEC50": 7.82}
{"Compound": "COc1ccc2nc(C(F)(F)F)c3c(c2c1)CC[C@]1(C[C@H]2C(=O)N[C@]4(C(=O)NS(=O)(=O)C5(C)CC5)C[C@H]4/C=C\\CCCCC[C@H](NC(=O)OC4(C)CCC4)C(=O)N2C1)O3", "pEC50": 8.73}
{"Compound": "CCc1nc2ccc(OC)cc2c2c1O[C@]1(CC2)C[C@H]2C(=O)N[C@]3(C(=O)NS(=O)(=O)C4(C)CC4)C[C@H]3/C=C\\CCCCC[C@H](NC(=O)c3cn[nH]c3)C(=O)N2C1", "pEC50": 7.16}
{"Compound": "CCC1(OC(=O)N[C@H]2CCCCC/C=C\\[C@@H]3C[C@@]3(C(=O)NS(=O)(=O)C3(C)CC3)NC(=O)[C@@H]3C[C@]4(CCc5c(c(C(F)(F)F)nc6ccc(OC)cc56)O4)CN3C2=O)CC1", "pEC50": 8.62}
